# assay text: physchem
# experimental parameters: organic solvent or mixture, thermodynamic from solid, Approximate solubility, MTBE, RT

- molecule: "C[C@@H]1CN(Cc2cccc(OC(F)(F)F)c2)CCN1C(=O)Oc1cncc(C(N)=O)c1 [Form A]"
  solubility: "7700 to 11500 µg/mL"

----------
# assay text: Solubility of Form A in physiologically relevant media (37° C.)
# Assay type: physicochemical
# experimental parameters: thermodynamic from solid, FeSSIF, final measured pH 5.17

- molecule: "C[C@@H]1CN(Cc2cccc(OC(F)(F)F)c2)CCN1C(=O)Oc1cncc(C(N)=O)c1 [Form A]"
  solubility (µg/mL): 1020

----------
# assay text: physchem
# experimental parameters: organic solvent or mixture, thermodynamic from solid, Approximate solubility, EtOH, RT

- compound: "C[C@@H]1CN(Cc2cccc(OC(F)(F)F)c2)CCN1C(=O)Oc1cncc(C(N)=O)c1 [Form A]"
  solubility: "> 17 mg/mL"

----------
# assay text: Solubility of Form A in physiologically relevant media (37° C.)
# Assay type: physicochemical
# experimental parameters: phosphate buffer pH 3, pH 4.2, aqueous buffer, thermodynamic from solid, pH 3 Phosphae buffer, final measured pH 4.20

- compound: "C[C@@H]1CN(Cc2cccc(OC(F)(F)F)c2)CCN1C(=O)Oc1cncc(C(N)=O)c1 [Form A]"
  solubility / µg/mL: 1250

----------
# assay text: 2-hrs equilibrium solubility in FaSSIF and FeSSIF (version 2)
# Type: physicochemical
# experimental parameters: FaSSIF (version 2), fassif, thermodynamic from solid

- compound: "C[C@@H]1CN(Cc2cccc(OC(F)(F)F)c2)CCN1C(=O)Oc1cncc(C(N)=O)c1 [Form A]"
  solubility thermodynamic at 2 h [µg/mL]: 120

----------
# assay text: physchem
# experimental parameters: organic solvent or mixture, thermodynamic from solid, Approximate solubility, toluene, RT

- molecule: "C[C@@H]1CN(Cc2cccc(OC(F)(F)F)c2)CCN1C(=O)Oc1cncc(C(N)=O)c1 [Form A]"
  solubility: "4500 to 6000 µg/mL"

----------
# assay text: Solubility of Form B in FaSSIF-v2 and FeSSIF-v2 at 37° C.
# Assay type: physicochemical
# experimental parameters: FeSSIF-v2, thermodynamic from solid, FeSSIF (pH 5.8), final pH 5.9
property name: solubility at 2 h (µg/mL)

- compound: "C[C@@H]1CN(Cc2cccc(OC(F)(F)F)c2)CCN1C(=O)Oc1cncc(C(N)=O)c1 [Form B]"
  property name: "solubility at 2 h"
  value reported: 80

----------
# assay text: physchem
# experimental parameters: organic solvent or mixture, thermodynamic from solid, Approximate solubility, NMP, RT
property name: solubility

- compound: "C[C@@H]1CN(Cc2cccc(OC(F)(F)F)c2)CCN1C(=O)Oc1cncc(C(N)=O)c1 [Form A]"
  property name: "solubility"
  value reported: "> 21 mg/mL"

----------
# assay text: physchem
# experimental parameters: organic solvent or mixture, thermodynamic from solid, Approximate solubility, 1,4-dioxane, RT

- compound: "C[C@@H]1CN(Cc2cccc(OC(F)(F)F)c2)CCN1C(=O)Oc1cncc(C(N)=O)c1 [Form A]"
  solubility: "> 22 mg/mL"

----------
# assay text: physchem
# experimental parameters: organic solvent or mixture, thermodynamic from solid, Approximate solubility, Acetone, RT
property name: solubility

- molecule: "C[C@@H]1CN(Cc2cccc(OC(F)(F)F)c2)CCN1C(=O)Oc1cncc(C(N)=O)c1 [Form A]"
  value reported: "> 17 mg/mL"

These entries and their values trace back to patent US12410133B2.
